# subject-of-test: Sigma non-opioid intracellular receptor 1 (Homo sapiens, UniProt Q99720)
# Sequence (Q99720 whole entry): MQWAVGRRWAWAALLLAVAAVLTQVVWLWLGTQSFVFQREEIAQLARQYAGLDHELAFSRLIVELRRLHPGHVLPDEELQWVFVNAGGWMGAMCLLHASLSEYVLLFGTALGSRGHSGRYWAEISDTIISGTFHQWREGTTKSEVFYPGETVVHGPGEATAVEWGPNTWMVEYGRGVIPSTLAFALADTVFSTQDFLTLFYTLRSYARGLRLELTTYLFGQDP
# measurement-description: DRUGMATRIX: Sigma1 radioligand binding (ligand: [3H] Haloperidol)
# Type: cell membranes, Jurkat, Membrane
# reported-conditions: jurkat; Not Active = under 50% inhibition at 10 µM
assay-endpoint: IC50

Reference set, count: 10
{"compound": "CC(C)(Sc1cc(C(C)(C)C)c(O)c(C(C)(C)C)c1)Sc1cc(C(C)(C)C)c(O)c(C(C)(C)C)c1 [PROBUCOL]", "assay-endpoint": "IC50", "result": "Not Active"}
{"compound": "C=C(CC)C(=O)c1ccc(OCC(=O)O)c(Cl)c1Cl [ETHACRYNIC ACID]", "assay-endpoint": "IC50", "result": "Not Active"}
{"compound": "CCS(=O)(=O)CCn1c([N+](=O)[O-])cnc1C [TINIDAZOLE]", "assay-endpoint": "IC50", "result": "Not Active"}
{"compound": "COc1cc(C(=O)NS(=O)(=O)c2ccccc2C)ccc1Cc1cn(C)c2ccc(NC(=O)OC3CCCC3)cc12 [ZAFIRLUKAST]", "assay-endpoint": "IC50", "result": "Not Active"}
{"compound": "O=P(O)(O)C(O)(Cc1cccnc1)P(=O)(O)O [RISEDRONIC ACID]", "assay-endpoint": "IC50", "result": "Not Active"}
{"compound": "CN1C(=O)CN=C(c2ccccc2)c2cc(Cl)ccc21 [DIAZEPAM]", "assay-endpoint": "IC50", "result": "Not Active"}
{"compound": "CC(C)(CO)C(O)C(=O)NCCCO (centres undefined) [PANTHENOL]", "assay-endpoint": "IC50", "result": "Not Active"}
{"compound": "Cc1c(N(C)CS(=O)(=O)[O-])c(=O)n(-c2ccccc2)n1C.[Na+] [DIPYRONE SODIUM]", "assay-endpoint": "IC50", "result": "Not Active"}
{"compound": "CN1C2CCCC1CC(NC(=O)c1nn(C)c3ccccc13)C2 (centres undefined) [GRANISETRON]", "assay-endpoint": "IC50", "result": "Not Active"}
{"compound": "Nc1nc2c(c(=O)[nH]1)N(C=O)C(CNc1ccc(C(=O)N[C@@H](CCC(=O)O)C(=O)O)cc1)CN2 (some centres undefined) [LEUCOVORIN]", "assay-endpoint": "IC50", "result": "Not Active"}

input: Fill in IC50 for record Cc1cccc(Nc2cc(Cl)nc(SCC(=O)O)n2)c1C [PIRINIXIC ACID]
output: Not Active

input: Fill in IC50 for record COc1ccc(/C=C/C(=O)Nc2ccccc2C(=O)O)cc1OC
output: Not Active

input: Fill in IC50 for record Nc1ccc(S(=O)(=O)Nc2ncccn2)cc1 [SULFADIAZINE]
output: Not Active

input: Fill in IC50 for record Cc1cnc(C(=O)NCCc2ccc(S(=O)(=O)NC(=O)NC3CCCCC3)cc2)cn1 [GLIPIZIDE]
output: Not Active

input: Fill in IC50 for record CCCCCC[C@H]1C(=O)O[C@H](C)[C@H](NC(=O)c2cccc(NC=O)c2O)C(=O)O[C@@H](C)[C@@H]1OC(=O)CC(C)C [ANTIMYCIN A]
output: Not Active

input: Fill in IC50 for record Oc1ccccc1O [CATECHOL]
output: Not Active

input: Fill in IC50 for record NC(=O)N1c2ccccc2C=Cc2ccccc21 [CARBAMAZEPINE]
output: Not Active

input: Fill in IC50 for record Clc1cc2c(cc1Cl)Oc1cc(Cl)c(Cl)cc1O2 [2,3,7,8-TETRACHLORODIBENZO-P-DIOXIN]
output: Not Active

input: Fill in IC50 for record Nn1nnc2ccccc21
output: Not Active

Origin of the recorded values: ChEMBL document CHEMBL1909046
